- System: ABUTH
- TEST: Post-emergence herbicidal effect, greenhouse pot test
- Type: in vivo, Abutilon theophrasti
- CONDITION SET: 320 g/ha, visual rating about 3 weeks after treatment
QUANTITY KIND: Post-emergence effect against ABUTH (%)
Unit % implied. Number only.

>>> print(df.to_string())
                                   molecule  unit_annotation  data_value
0  COC(=O)C(OC)Oc1nn(-c2cc(F)ccc2F)c(-c2cncc(F)c2)c1C1CC1 (stereo not drawn) [Example I-112]                %          80
1  COC(=O)CCOC(=O)C(OC)Oc1nn(-c2cc(F)ccc2F)c(-c2cncc(F)c2)c1C1CC1 (single isomer, unassigned) [Example I-79]                %          90

input: Can you look up the measured Post-emergence effect against ABUTH of COC(=O)C(OC)Oc1nn(-c2ncccc2F)c(-c2ccc(F)nc2)c1C1CC1 (stereo not drawn) [Example I-108] for me?
output: 90

input: Can you look up the measured Post-emergence effect against ABUTH of COC(=O)CCOC(=O)C(OC)Oc1nn(-c2ccccc2F)c(-c2ccc(F)nc2)c1C(F)(F)F (stereo not drawn) [Example I-62] for me?
output: 90

input: Can you look up the measured Post-emergence effect against ABUTH of COC(=O)C(OC)Oc1nn(-c2cccc(C)c2F)c(-c2ccc(F)nc2)c1C1CC1 (stereo not drawn) [Example I-93] for me?
output: 90

input: Can you look up the measured Post-emergence effect against ABUTH of COC(=O)C(OC)Oc1nn(-c2ncccc2F)c(-c2cncc(F)c2)c1C1CC1 (stereo not drawn) [Example I-87] for me?
output: 90

input: Can you look up the measured Post-emergence effect against ABUTH of COC(=O)CCOC(=O)C(OC)Oc1nn(-c2ncccc2F)c(-c2ccc(F)nc2)c1C1CC1 (single isomer, unassigned) [Example I-88] for me?
output: 80

input: Can you look up the measured Post-emergence effect against ABUTH of COC(=O)C(C)COC(=O)C(OC)Oc1nn(-c2ccccc2F)c(-c2ccc(F)nc2)c1Br (racemic) [Example I-10] for me?
output: 90

input: Can you look up the measured Post-emergence effect against ABUTH of CCOC(Oc1nn(-c2ccccc2F)c(-c2ccc(F)nc2)c1Cl)C(=O)OCCC(=O)OC (stereo not drawn) [Example I-53] for me?
output: 80

input: Can you look up the measured Post-emergence effect against ABUTH of COC(=O)CCOC(=O)C(OC)Oc1nn(-c2cc(F)ccc2F)c(-c2cncc(F)c2)c1C1CC1 (single isomer, unassigned) [Example I-78] for me?
output: 80

input: Can you look up the measured Post-emergence effect against ABUTH of COC(Oc1nn(-c2ncccc2F)c(-c2cncc(F)c2)c1C1CC1)C(=O)O (stereo not drawn) [Example I-85] for me?
output: 90

input: Can you look up the measured Post-emergence effect against ABUTH of COC(=O)C(OC)Oc1nn(-c2cccc(Cl)c2F)c(-c2cncc(F)c2)c1I (stereo not drawn) [Example I-19] for me?
output: 90

input: Can you look up the measured Post-emergence effect against ABUTH of COC(Oc1nn(-c2cc(F)ccc2F)c(-c2cncc(F)c2)c1C1CC1)C(=O)O (stereo not drawn) [Example I-110] for me?
output: 90

input: Can you look up the measured Post-emergence effect against ABUTH of COC(=O)CCOC(=O)C(OC)Oc1nn(-c2ccccc2F)c(-c2ccc(F)nc2)c1C1CC1 (single isomer, unassigned) [Example I-75] for me?
output: 90

input: Can you look up the measured Post-emergence effect against ABUTH of COC(=O)C(OC)Oc1nn(-c2cccc(Cl)c2F)c(-c2cncc(F)c2)c1Br (stereo not drawn) [Example I-17] for me?
output: 90

====

- Test system: VIOTR
- TEST: Post-emergence herbicidal effect, greenhouse pot test
- Assay type: in vivo, Viola tricolor
- CONDITION SET: Viola tricolor, 504 h, 20 g/ha, read-out: Post-emergence effect against VIOTR in %
QUANTITY KIND: pest or weed control at 20 g/ha (%)
Unit % implied. Number only.

In the examples that follow, each entry is paired with its recorded pest or weed control at 20 g/ha.
In [3]: df
Out[3]:
                                   compound                    quantity_kind  data_value
0  COC(=O)C(OC)Oc1nn(-c2ncccc2F)c(-c2cncc(F)c2)c1Br (centres unmarked) [Example I-91]  pest or weed control at 20 g/ha          80
1  COC(=O)C(OC)Oc1nn(-c2cccc(Cl)c2F)c(-c2cncc(F)c2)c1Cl (centres unmarked) [Example I-16]  pest or weed control at 20 g/ha          80
2  COC(=O)C(OC)Oc1nn(-c2cc(F)ccc2F)c(-c2cncc(F)c2)c1Br (centres unmarked) [Example I-29]  pest or weed control at 20 g/ha          80
3  COC(=O)C(OC)Oc1nn(-c2ccccc2F)c(-c2ccc(F)nc2)c1C1CC1 (centres unmarked) [Example I-71]  pest or weed control at 20 g/ha          90
4  COC(=O)C(OC)Oc1nn(-c2cc(F)ccc2F)c(-c2cncc(F)c2)c1I (centres unmarked) [Example I-28]  pest or weed control at 20 g/ha          80

input: Can you look up the measured pest or weed control at 20 g/ha of CCOC(=O)C(OC)Oc1nn(-c2cc(F)ccc2F)c(-c2cncc(F)c2)c1Br (centres unmarked) [Example I-33] for me?
output: 80

input: Can you look up the measured pest or weed control at 20 g/ha of COC(=O)C(OC)Oc1nn(-c2ncccc2F)c(-c2cncc(F)c2)c1C1CC1 (centres unmarked) [Example I-73] for me?
output: 90

input: Can you look up the measured pest or weed control at 20 g/ha of COC(=O)C(OC)Oc1nn(-c2ccccc2)c(-c2ccc(F)nc2)c1Br (centres unmarked) [Example I-30] for me?
output: 80

====

- Tested on: KCHSC
- TEST: Post-emergence herbicidal effect, greenhouse pot test
- Type: in vivo
- CONDITION SET: 504 h, 80 g/ha, read-out: Post-emergence effect against KCHSC in %
compounds and their reported pest or weed control at 80 g/ha
Unit % implied. Number only.

In the examples that follow, each entry is paired with its recorded pest or weed control at 80 g/ha.
>>> print(df.to_string())
                                   compound  measured_target  data_value
0  COC(Oc1nn(-c2ncccc2F)c(-c2cncc(F)c2)c1C1CC1)C(=O)O (stereo not drawn)            KCHSC          90
1  COC(=O)C(OC)Oc1nn(-c2ncccc2F)c(-c2cncc(F)c2)c1C1CC1 (stereo not drawn)            KCHSC          90
2  COC(=O)C(OC)Oc1nn(-c2ncccc2F)c(-c2cncc(F)c2)c1I (stereo not drawn)            KCHSC          90
3  CCOC(=O)C(OC)Oc1nn(-c2ncccc2F)c(-c2ccc(F)nc2)c1C(F)(F)F (stereo not drawn)            KCHSC          90

input: Can you look up the measured pest or weed control at 80 g/ha of CCOC(=O)C(OC)Oc1nn(-c2ncccc2F)c(-c2ccc(F)nc2)c1Br (stereo not drawn) for me?
output: 90

input: Can you look up the measured pest or weed control at 80 g/ha of COC(=O)C(OC)Oc1nn(-c2ccccc2F)c(-c2ccc(F)nc2)c1C1CC1 (stereo not drawn) for me?
output: 80

input: Can you look up the measured pest or weed control at 80 g/ha of CCOC(=O)C(OC)Oc1nn(-c2ncccc2F)c(-c2ccc(F)nc2)c1C1CC1 (stereo not drawn) for me?
output: 90

input: Can you look up the measured pest or weed control at 80 g/ha of CCOC(=O)C(OCC)Oc1nn(-c2ccccc2F)c(-c2ccc(F)nc2)c1Br (single isomer, unassigned) for me?
output: 80

input: Can you look up the measured pest or weed control at 80 g/ha of COC(=O)C(OC)Oc1nn(-c2ncccc2F)c(-c2cncc(F)c2)c1Br (stereo not drawn) for me?
output: 80

====

- Tested on: KCHSC
- TEST: Post-emergence herbicidal effect, greenhouse pot test
- Format: in vivo
- CONDITION SET: 504 h, 80 g/ha, read-out: Post-emergence effect against KCHSC in %
compounds and their reported pest or weed control at 80 g/ha
For clarity, give the value followed by its unit.

>>> print(df.to_string())
                                   compound  measured_target  data_value
0  CCOC(=O)C(OC)Oc1nn(-c2cnccn2)c(-c2ccc(F)nc2)c1Cl (centres unmarked) [Example I-46]            KCHSC         80%
1  CCOC(=O)C(OC)Oc1nn(-c2ncccc2F)c(-c2cncc(F)c2)c1C1CC1 (centres unmarked) [Example I-113]            KCHSC         90%
2  CCOC(=O)C(OC)Oc1nn(-c2cnccn2)c(-c2ccc(F)nc2)c1Br (centres unmarked) [Example I-47]            KCHSC         90%
3  COC(Oc1nn(-c2ncccc2F)c(-c2ccc(F)nc2)c1C1CC1)C(=O)O (centres unmarked) [Example I-90]            KCHSC         90%

input: Record CCOC(=O)C(OC)Oc1nn(-c2ncccc2F)c(-c2ccc(F)nc2)c1Cl (centres unmarked) [Example I-48] : what is its pest or weed control at 80 g/ha with KCHSC?
output: 80%

input: Record COC(=O)C(OC)Oc1nn(-c2ccccc2F)c(-c2ccc(F)nc2)c1C(F)(F)F (centres unmarked) [Example I-70] : what is its pest or weed control at 80 g/ha with KCHSC?
output: 90%

input: Record COC(=O)C(OC)Oc1nn(-c2ncccc2F)c(-c2ccc(F)nc2)c1C1CC1 (centres unmarked) [Example I-108] : what is its pest or weed control at 80 g/ha with KCHSC?
output: 90%

input: Record COC(=O)C(OC)Oc1nn(-c2ncccc2F)c(-c2ccc(F)nc2)c1C(F)(F)F (centres unmarked) [Example I-41] : what is its pest or weed control at 80 g/ha with KCHSC?
output: 80%
